meta.source: patent US20040242627A1

Target: PAR1 thrombin receptor (Homo sapiens)
Construct: homogenized with a Dounce homogenizer, and then centrifuged at 40,000 g for 60 minutes to yield platelet membrane
Sequence (P25116 22-425): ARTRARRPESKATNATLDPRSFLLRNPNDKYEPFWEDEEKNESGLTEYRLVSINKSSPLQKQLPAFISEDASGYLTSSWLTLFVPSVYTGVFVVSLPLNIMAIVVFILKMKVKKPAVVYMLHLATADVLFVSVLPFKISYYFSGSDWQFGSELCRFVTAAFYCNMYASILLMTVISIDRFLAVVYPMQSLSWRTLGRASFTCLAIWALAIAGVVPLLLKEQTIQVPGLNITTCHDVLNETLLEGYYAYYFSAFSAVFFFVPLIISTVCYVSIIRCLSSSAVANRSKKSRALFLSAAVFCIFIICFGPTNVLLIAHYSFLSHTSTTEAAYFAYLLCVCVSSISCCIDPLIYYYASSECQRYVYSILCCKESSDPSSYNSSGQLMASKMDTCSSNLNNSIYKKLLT
Experiment: Receptor binding assay (high affinity TRAP displacement, platelet membrane)
Settings: platelet membrane of healthy adult, [3H] high affinity TRAP, 37° C. 1 hour; read-out: RBA IC50
Where a name gives a salt, the structure may show the parent alone.
readout type: IC50 (nM)
Provide the reading as a plain figure in nM.

May I ask what IC50 has been recorded for CC(C)(C)c1cc(C(=O)Cn2c(=N)n(Cc3ccc(N)cc3)c3ccccc32)cc(C(C)(C)C)c1O [Example 40, dihydrochloride] ?
260
